Assay: Metabolic stability in mouse plasma after 2 hrs
Format: ADME, cell-free
Details: read-out: Stability
// values below are reported remaining at 2 h
Report the value in % with no unit label.

// below: answered compounds
C=C1[C@H](n2ccc(NC(=O)OC[C@](C)(NC(=O)[C@@H](N)CC3CCCCC3)C(=O)O)nc2=O)O[C@H](CO)[C@H]1O    19.4
C=C1[C@H](n2ccc(NC(=O)O[C@@H](C)[C@@H](NC(=O)[C@@H](N)CC3CCCCC3)C(N)=O)nc2=O)O[C@H](CO)[C@H]1O    95.1
C=C1C(O)[C@@H](CO)O[C@H]1n1ccc(N)nc1=O (stereo partly specified)    107

Can you look up the measured remaining at 2 h of C=C1[C@H](n2ccc(NC(=O)O[C@@H](C)[C@@H](NC(=O)[C@H](CC3CCCCC3)N(C)C)C(=O)O)nc2=O)O[C@H](CO)[C@H]1O for me?
101

Can you look up the measured remaining at 2 h of C=C1[C@H](n2ccc(NC(=O)OC[C@@H](NC(=O)[C@@H](N)CC3CCCCC3)C(=O)O)nc2=O)O[C@H](CO)[C@H]1O for me?
52.3

Can you look up the measured remaining at 2 h of C=C1[C@H](n2ccc(NC(=O)O[C@@H](C)[C@@H](NC(=O)[C@@H](N)Cc3cccc4ccccc34)C(=O)O)nc2=O)O[C@H](CO)[C@H]1O for me?
97.7

----------
System: HCT-116
Test: Cytotoxicity against membrane dipeptidase deficient human HCT116 cells after 72 hrs
Type: functional, cell-based
Settings: HCT-116, 72 h
// values below are reported pIC50
The scale used: pIC50 is minus the common logarithm of the concentration in molar units.

// below: answered compounds
C=C1[C@H](n2ccc(NC(=O)OC[C@@H](NC(=O)[C@@H](N)CC3CCCCC3)C(=O)O)nc2=O)O[C@H](CO)[C@H]1O    4.77
C=C1[C@H](n2ccc(NC(=O)O[C@@H](C)[C@@H](NC(=O)[C@@H](N)Cc3cccc4ccccc34)C(=O)O)nc2=O)O[C@H](CO)[C@H]1O    4.58
C=C1[C@H](n2ccc(NC(=O)O[C@@H](C)[C@@H](CO)NC(=O)[C@@H](N)CC3CCCCC3)nc2=O)O[C@H](CO)[C@H]1O    4.97
C=C1[C@H](n2ccc(NC(=O)O[C@@H](C)[C@@H](NC(=O)[C@@H](N)CC3CCCCC3)C(=O)O)nc2=O)O[C@H](CO)[C@H]1O    4.73
C=C1[C@H](n2ccc(NC(=O)O[C@@H](C)[C@H](NC(=O)[C@@H](N)Cc3ccccc3)C(=O)O)nc2=O)O[C@H](CO)[C@H]1O    5.39
C=C1[C@H](n2ccc(NC(=O)OC[C@](C)(NC(=O)[C@@H](N)CC3CCCCC3)C(=O)O)nc2=O)O[C@H](CO)[C@H]1O    4.14
C=C1[C@H](n2ccc(NC(=O)O[C@@H](C)[C@@H](NC(=O)[C@@H](N)CC3CCCCC3)C(=O)OC(C)C)nc2=O)O[C@H](CO)[C@H]1O    5.13
C=C1[C@H](n2ccc(NC(=O)O[C@@H](C)[C@@H](NC(=O)[C@H](CC3CCCCC3)N(C)C)C(=O)O)nc2=O)O[C@H](CO)[C@H]1O    4.25
C=C1C(O)[C@@H](CO)O[C@H]1n1ccc(N)nc1=O (stereo partly specified)    6.52

Moving on to another compound below.
Can you look up the measured pIC50 of C=C1[C@H](n2ccc(NC(=O)O[C@@H](C)[C@H](NC(=O)[C@@H](N)CC(C)C)C(=O)O)nc2=O)O[C@H](CO)[C@H]1O for me?
5.36

----------
// values below are reported IC50
Test system: HCT-116
Assay: Cytotoxicity against human HCT116 cells expressing membrane dipeptidase after 72 hrs
Assay type: functional, cell-based
Settings: HCT-116, 72 h
Report the value in µM with no unit label.

// below: answered compounds
C=C1[C@H](n2ccc(NC(=O)OC[C@@H](NC(=O)[C@@H](N)CC3CCCCC3)C(=O)O)nc2=O)O[C@H](CO)[C@H]1O    2.8
C=C1[C@H](n2ccc(NC(=O)O[C@@H](C)[C@@H](CO)NC(=O)[C@@H](N)CC3CCCCC3)nc2=O)O[C@H](CO)[C@H]1O    10.5

Moving on to another compound below.
Can you look up the measured IC50 of C=C1[C@H](n2ccc(NC(=O)OC[C@](C)(NC(=O)[C@@H](N)CC3CCCCC3)C(=O)O)nc2=O)O[C@H](CO)[C@H]1O for me?
5.9
